Hello, the source for this data is paper PMC2756588, in case you need it.

Give measured SPOT intensity for each item. Keep answers brief.
- target_entity: T1, Pin3, Q06449
- T1 sequence (Q06449 53-122, looked up): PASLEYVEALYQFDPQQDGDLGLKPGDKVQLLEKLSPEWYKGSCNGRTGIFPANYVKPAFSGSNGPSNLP
- assay_comment: SPOT array
- measurement_parameters: median of control spots 2171
Output: the number by itself.

What value of SPOT intensity has been reported for the following binder? KRKRRLPVSEDTNTK 4

What value of SPOT intensity has been reported for the following binder? NGRRRPKFRVQLSGN 11

What value of SPOT intensity has been reported for the following binder? SNRRPVPRRPSQPLN 12

What value of SPOT intensity has been reported for the following binder? RLSFFFPLDPAYIRN 13

What value of SPOT intensity has been reported for the following binder? IHTRRPSSTSQYLIR 25

What value of SPOT intensity has been reported for the following binder? RSRRSSFAYPQQVAI 8

What value of SPOT intensity has been reported for the following binder? PPIPNAPLSPAPAVP 0

What value of SPOT intensity has been reported for the following binder? GKFIPSRPAPKPPSS 12

What value of SPOT intensity has been reported for the following binder? ATNVPVAPPPPPASL 0

What value of SPOT intensity has been reported for the following binder? PPPPPPPPPPPLPQS 0

What value of SPOT intensity has been reported for the following binder? KTRLRPAFIQQLWSS 15

What value of SPOT intensity has been reported for the following binder? HRRRRVFSIPSLKSI 7

What value of SPOT intensity has been reported for the following binder? KRKRFNLLLPKPYLT 0

What value of SPOT intensity has been reported for the following binder? QRKSLRRPTLSKPAV 9

What value of SPOT intensity has been reported for the following binder? VRTRRRPPPPPIPST 11
